- procedure.text: Caco-2 bi-directional permeability assay
- Assay type: in vitro ADME, human
- condition: human, Caco-2; apical to basolateral, 120 min, mean and standard deviation of duplicates; read-out: Mean Papp, Direction A→B
readout.type: Papp A→B at 120 min, 10 μM (×10⁻⁶ cm/s)
Numbers only, in ×10⁻⁶ cm/s.

QUERY: So what does the record say about Papp A→B at 120 min, 10 μM for C=C(C)[C@@H]1CCC(C)=C[C@H]1c1c(O)cc(CCCCC)cc1O [CBD, cannabidiol, reference compound] ?
RESULT: 0.61
